Value source: ChEMBL document CHEMBL5034035

test-protocol: Oral bioavailability in Sprague-Dawley rat at 3 mg/kg measured up to 24 hrs by LC-MS/MS analysis
Type: ADME, organism-based
reported-conditions: in vivo
Below: a set of entries, each annotated with reported bioavailability.
Your answer is read as %, so omit the unit and give the number.

>  <smiles-str>
Cc1nc(-c2nnn(C)c2COC(=O)N(C)CC2CCC2)ccc1O[C@H]1CCC[C@H](C(=O)O)C1

>  <bioavailability / %>
69

$$$$

Now for a further compound.
In: Request the reported bioavailability associated with "CCCN(C)C(=O)OCc1c(-c2ccc(O[C@H]3CCC[C@H](C(=O)O)C3)c(C)n2)nnn1C"
Out: 100

====

Known half-life at 10 µM of a selection of compounds
test-protocol: Half life in mouse liver microsomes at 10 uM measured after 120 mins
Type: ADME, Microsome

Observe how each entry below is paired with its result.
>  <smiles-str>
CCCN(C)C(=O)OCc1c(-c2ccc(O[C@H]3CCC[C@H](C(=O)O)C3)c(C)n2)nnn1C

>  <property>
half-life at 10 µM

>  <result>
> 2 h

$$$$
>  <smiles-str>
Cc1noc(-c2ccc(-c3ccc(C4(C(=O)O)CC4)cc3)cc2)c1NC(=O)O[C@H](C)c1ccccc1

>  <property>
half-life at 10 µM

>  <result>
1.52 h

$$$$

Could you now look at the following compound, please?
In: Bench note: what half-life at 10 µM did "Cc1nc(-c2nnn(C)c2COC(=O)N(C)CC2CCC2)ccc1O[C@H]1CCC[C@H](C(=O)O)C1" show?
Out: > 2 h

====

Vd reference
test-protocol: Volume of distribution at steady state in Sprague-Dawley rat at 3 mg/kg, po or 1 mg/kg, iv measured up to 24 hrs by LC-MS/MS analysis
Assay type: ADME, organism-based
reported-conditions: in vivo, read-out: Vdss
Use L/kg as the unit, but write only the number.

>  <molecule>
Cc1nc(-c2nnn(C)c2COC(=O)N(C)CC2CCC2)ccc1O[C@H]1CCC[C@H](C(=O)O)C1

>  <unit-spec>
L/kg

>  <Vd>
9

$$$$

In: Look up Vd for this molecule: CCCN(C)C(=O)OCc1c(-c2ccc(O[C@H]3CCC[C@H](C(=O)O)C3)c(C)n2)nnn1C [ADMILPARANT]
Out: 3.5

====

This section presents compounds with their documented bioavailability values.
test-protocol: Oral bioavailability in cynomolgus monkey at 3 mg/kg measured up to 24 hrs by LC-MS/MS analysis
Format: ADME, organism-based, Macaca fascicularis
reported-conditions: in vivo
State just the number; it will be interpreted in %.

In: Looking for the measured bioavailability of "Cc1nc(-c2nnn(C)c2COC(=O)N(C)CC2CCC2)ccc1O[C@H]1CCC[C@H](C(=O)O)C1" , can you help?
Out: 65

In: What about "CCCN(C)C(=O)OCc1c(-c2ccc(O[C@H]3CCC[C@H](C(=O)O)C3)c(C)n2)nnn1C" ?
Out: 79

====

target: CYP2B6 (Homo sapiens, UniProt P20813)
Sequence (P20813 whole entry): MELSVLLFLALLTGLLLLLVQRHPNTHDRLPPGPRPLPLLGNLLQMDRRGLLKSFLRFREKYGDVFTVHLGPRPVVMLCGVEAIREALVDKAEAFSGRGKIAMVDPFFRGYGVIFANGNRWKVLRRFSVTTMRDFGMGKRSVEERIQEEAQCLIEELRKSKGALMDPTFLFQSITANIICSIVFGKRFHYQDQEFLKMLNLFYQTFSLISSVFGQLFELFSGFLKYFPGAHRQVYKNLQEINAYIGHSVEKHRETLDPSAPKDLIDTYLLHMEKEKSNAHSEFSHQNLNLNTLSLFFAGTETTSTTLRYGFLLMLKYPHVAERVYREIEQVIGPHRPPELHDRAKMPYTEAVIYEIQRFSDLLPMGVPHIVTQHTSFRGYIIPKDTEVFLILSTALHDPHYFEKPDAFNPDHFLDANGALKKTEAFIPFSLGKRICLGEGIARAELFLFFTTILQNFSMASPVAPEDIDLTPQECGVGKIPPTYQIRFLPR
test-protocol: Induction of CYP2B6 in human hepatocytes
Assay type: ADME, cell-based, Hepatocyte
property: IC50

>  <compound>
Cc1noc(-c2ccc(-c3ccc(C4(C(=O)O)CC4)cc3)cc2)c1NC(=O)O[C@H](C)c1ccccc1 [BMS-986020]

>  <result>
> 50 µM

$$$$

API: the following record is the query input.
In: Dear colleague, I am looking for the recorded IC50 of the following compound: "Cc1nc(-c2nnn(C)c2COC(=O)N(C)CC2CCC2)ccc1O[C@H]1CCC[C@H](C(=O)O)C1"
Out: > 50 µM
